The reported measurements were obtained from patent US20240294623A1.

This section presents binders with their documented pKd values.
Target: T1, hLTBP1-proTGFβ1 (human, UniProt Q14766 347-1721; P01137 30-390, limits assumed)
T1 construct: Large latent complex (LLC): proTGFβ1 dimer disulfide-linked to one presenting molecule; recombinant, purified, biotinylated in BLI/SPR; The same id is used for the complex made by transfected cells in the reporter assays; also called human LTBP1-proTGFβ1 complex; LTBP1-ProTGFb1
T1 sequence (Q14766 347-1721 limits assumed, chain 1 of 2): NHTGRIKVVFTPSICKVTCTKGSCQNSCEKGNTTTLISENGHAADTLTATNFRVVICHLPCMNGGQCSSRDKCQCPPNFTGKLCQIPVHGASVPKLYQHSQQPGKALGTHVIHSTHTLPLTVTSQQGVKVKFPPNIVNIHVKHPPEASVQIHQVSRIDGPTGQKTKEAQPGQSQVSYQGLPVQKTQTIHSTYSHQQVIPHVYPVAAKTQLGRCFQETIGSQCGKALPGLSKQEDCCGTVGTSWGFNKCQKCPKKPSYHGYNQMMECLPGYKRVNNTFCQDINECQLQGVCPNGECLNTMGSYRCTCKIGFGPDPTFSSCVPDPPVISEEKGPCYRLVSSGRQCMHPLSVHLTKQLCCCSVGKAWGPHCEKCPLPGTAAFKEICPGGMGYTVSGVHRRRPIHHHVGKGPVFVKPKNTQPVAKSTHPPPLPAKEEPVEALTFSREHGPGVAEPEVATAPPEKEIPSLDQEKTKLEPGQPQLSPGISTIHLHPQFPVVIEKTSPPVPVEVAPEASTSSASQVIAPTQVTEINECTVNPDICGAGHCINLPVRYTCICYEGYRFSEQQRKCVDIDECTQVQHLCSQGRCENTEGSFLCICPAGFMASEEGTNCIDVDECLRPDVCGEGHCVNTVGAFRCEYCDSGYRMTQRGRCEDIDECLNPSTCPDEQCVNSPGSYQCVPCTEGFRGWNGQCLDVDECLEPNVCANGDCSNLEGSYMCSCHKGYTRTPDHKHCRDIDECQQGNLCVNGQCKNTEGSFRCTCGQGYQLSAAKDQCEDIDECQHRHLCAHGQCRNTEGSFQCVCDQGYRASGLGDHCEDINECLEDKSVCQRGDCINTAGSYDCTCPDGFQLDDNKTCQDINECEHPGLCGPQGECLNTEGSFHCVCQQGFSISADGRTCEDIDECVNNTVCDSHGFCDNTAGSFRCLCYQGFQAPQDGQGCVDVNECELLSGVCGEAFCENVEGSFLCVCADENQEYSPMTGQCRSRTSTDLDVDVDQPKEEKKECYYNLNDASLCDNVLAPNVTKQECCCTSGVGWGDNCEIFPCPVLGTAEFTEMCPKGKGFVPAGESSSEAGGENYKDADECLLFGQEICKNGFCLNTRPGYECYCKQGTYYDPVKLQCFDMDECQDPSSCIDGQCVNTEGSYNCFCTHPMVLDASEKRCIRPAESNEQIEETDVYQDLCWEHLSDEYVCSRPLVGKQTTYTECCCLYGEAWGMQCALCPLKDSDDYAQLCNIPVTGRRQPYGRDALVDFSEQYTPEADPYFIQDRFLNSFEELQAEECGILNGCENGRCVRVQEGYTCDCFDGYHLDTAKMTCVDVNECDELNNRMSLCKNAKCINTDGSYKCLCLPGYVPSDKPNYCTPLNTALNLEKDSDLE
T1 sequence (P01137 30-390 limits assumed, chain 2 of 2): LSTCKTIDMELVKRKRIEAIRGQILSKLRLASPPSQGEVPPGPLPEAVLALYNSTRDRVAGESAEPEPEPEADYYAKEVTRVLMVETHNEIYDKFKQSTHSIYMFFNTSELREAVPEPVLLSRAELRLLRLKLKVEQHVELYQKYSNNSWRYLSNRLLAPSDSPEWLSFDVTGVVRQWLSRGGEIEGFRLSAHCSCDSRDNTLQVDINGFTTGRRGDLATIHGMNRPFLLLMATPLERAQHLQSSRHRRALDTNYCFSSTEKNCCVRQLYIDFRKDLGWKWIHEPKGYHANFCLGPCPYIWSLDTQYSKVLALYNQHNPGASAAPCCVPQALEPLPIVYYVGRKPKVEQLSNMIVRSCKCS
Assay: BLI (Octet)
pKd: −log10 of the molar value.
readout-name: pKd

binder	value
Ab21 (antibody, V domains shown) VH: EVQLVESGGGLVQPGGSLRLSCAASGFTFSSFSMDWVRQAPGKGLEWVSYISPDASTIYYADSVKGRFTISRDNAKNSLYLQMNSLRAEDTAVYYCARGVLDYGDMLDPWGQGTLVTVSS VL: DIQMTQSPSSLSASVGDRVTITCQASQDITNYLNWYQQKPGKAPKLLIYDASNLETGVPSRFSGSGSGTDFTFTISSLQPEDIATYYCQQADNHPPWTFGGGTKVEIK	9.65
Ab29 (antibody, V domains shown) VH: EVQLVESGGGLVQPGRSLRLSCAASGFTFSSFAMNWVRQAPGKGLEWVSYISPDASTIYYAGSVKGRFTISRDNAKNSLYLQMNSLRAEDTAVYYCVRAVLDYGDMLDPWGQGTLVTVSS VL: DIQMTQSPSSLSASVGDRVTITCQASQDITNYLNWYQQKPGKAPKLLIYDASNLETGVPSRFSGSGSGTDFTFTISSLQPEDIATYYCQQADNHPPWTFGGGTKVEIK	9.72
Ab30 (antibody, V domains shown) VH: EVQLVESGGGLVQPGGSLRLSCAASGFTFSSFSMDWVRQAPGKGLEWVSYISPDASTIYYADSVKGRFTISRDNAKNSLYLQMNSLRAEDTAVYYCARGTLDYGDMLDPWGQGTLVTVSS VL: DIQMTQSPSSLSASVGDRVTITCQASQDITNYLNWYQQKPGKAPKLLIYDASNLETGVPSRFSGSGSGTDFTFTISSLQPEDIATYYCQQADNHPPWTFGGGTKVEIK	9.48
